// values below are reported EC50 (M) of the MK0677 agonist, IP-One Gq assay, peptidomimetic at 10 µM, n = 3
Molecular target: ghrelin receptor overexpressed on HEK293 cells (UniProt Q92847 1-366, limits assumed)
Sequence (Q92847 whole entry): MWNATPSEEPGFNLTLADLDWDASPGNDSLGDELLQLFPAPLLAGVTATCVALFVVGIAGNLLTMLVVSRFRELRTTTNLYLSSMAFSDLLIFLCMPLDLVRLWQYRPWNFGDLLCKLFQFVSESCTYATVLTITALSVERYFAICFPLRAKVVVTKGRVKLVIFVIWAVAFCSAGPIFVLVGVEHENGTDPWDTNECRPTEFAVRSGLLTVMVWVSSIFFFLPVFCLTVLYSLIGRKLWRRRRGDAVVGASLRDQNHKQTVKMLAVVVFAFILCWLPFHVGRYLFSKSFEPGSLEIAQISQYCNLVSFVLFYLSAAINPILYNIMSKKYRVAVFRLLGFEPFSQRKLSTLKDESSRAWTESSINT
Assay: cell-based or functional assay
Positions of bridges follow the written chain, without caps; N, C: chain ends. Non-standard residues stand in square brackets, D forms with d. Lys(N3) = [N-]=[N+]=NCCCC[C@H](N)C(=O)O; Pra = C#CC[C@H](N)C(=O)O
MEASURED ENDPOINT: EC50 (M) of the MK0677 agonist, IP-One Gq assay, peptidomimetic at 10 µM, n = 3

{"BINDER": "H-RRRRRRRRFA[Pra]VKD[Lys(N3)]ILQLNLKEYNLV-OH (triazole 11-15) [SBL-GQ-15]", "UNIT": "M", "QUANTITATIVE READOUT": "7.18e-11"}
{"BINDER": "H-RRRRFA[Pra]VKD[Lys(N3)]ILQLNLKEYNLV-OH (triazole 7-11) [SBL-GQ-14]", "UNIT": "M", "QUANTITATIVE READOUT": "1.87e-10"}
{"BINDER": "Ac-KKKFA[Pra]VKD[Lys(N3)]ILQLNLKEYNLV-OH (triazole 6-10) [SBL-GQ-05]", "UNIT": "M", "QUANTITATIVE READOUT": "1.1e-10"}
{"BINDER": "H-KKKFA[Pra]VKD[Lys(N3)]ILQLNLKEYNLV-OH (triazole 6-10) [SBL-GQ-13]", "UNIT": "M", "QUANTITATIVE READOUT": "1.31e-10"}
